Data credit: the supplement of paper PMC12667976

B1: library; numbered along this chain (parent)
chain: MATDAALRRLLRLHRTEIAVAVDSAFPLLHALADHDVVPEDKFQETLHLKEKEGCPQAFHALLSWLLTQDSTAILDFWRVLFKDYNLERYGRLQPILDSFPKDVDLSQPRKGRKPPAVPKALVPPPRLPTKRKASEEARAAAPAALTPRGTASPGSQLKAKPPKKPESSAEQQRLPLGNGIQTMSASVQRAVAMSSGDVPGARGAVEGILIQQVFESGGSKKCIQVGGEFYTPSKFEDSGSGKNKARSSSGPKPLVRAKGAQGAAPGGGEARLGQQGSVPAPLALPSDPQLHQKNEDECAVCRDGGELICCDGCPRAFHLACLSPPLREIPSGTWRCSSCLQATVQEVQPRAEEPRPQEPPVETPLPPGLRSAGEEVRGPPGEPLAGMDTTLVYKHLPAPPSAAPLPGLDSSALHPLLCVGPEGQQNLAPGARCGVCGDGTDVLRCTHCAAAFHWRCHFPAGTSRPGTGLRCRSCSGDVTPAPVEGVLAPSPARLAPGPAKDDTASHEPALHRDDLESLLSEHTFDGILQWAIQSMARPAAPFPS

Variants of: B1
TEST METHOD NOTES: AIRE transcriptional activation functional score (insulin promoter-GFP; nonsense median 0, synonymous median 1) (normalised score); higher = higher AIRE activity (more reporter activation)
PARTICULARS: with insulin promoter-GFP reporter in HEK293
Criterion: AIRE transcriptional activation functional score meeting or surpassing 1. Met: t. Not met: f.

Before answering, review these 3 worked examples.
[[record]]
mutation_label = "C314F"
assigned_category = "f"

[[record]]
mutation_label = "I209D"
assigned_category = "f"

[[record]]
mutation_label = "T344Q"
assigned_category = "t"


# next variant below
Q: Would you say `F77C` shows AIRE transcriptional activation functional score at minimum 1?
Result: f
